This collection of values is drawn from patent US20240317806A1.

Assay: Physicochemical properties of PnPP-19 peptide (pI, pKa)
observed-property: pKa

> print(dat)
                              substance  observed.property  measured.number
1  Ac-GERRQYFWIAWYKLANSKK-NH2 [PnPP-19]                pKa             12.4
